system: THP-1; assay: THP-1 cell loss relative to DMSO control; higher = more host cell loss (toxicity); extreme values may be limits of the assay; conditions: 10 µM; 4 days; infection: M. tuberculosis H37Rv
Structures can show the parent of a compound that is named as a salt.
Give 1 when the value for THP-1 cell loss is at least 30%. Give -1 when it is less.

Ask: Is THP-1 cell loss for O=c1oc2c(O)c(O)cc3c(=O)oc4c(O)c(O)cc1c4c23 at or above 30%?
Reply: -1

Ask: Check if THP-1 cell loss >= 30% (inclusive). Item: CCn1c(-c2nonc2N)nc2c(C#CC(C)(C)O)ncc(OC[C@H]3CCCNC3)c21
Reply: -1

Ask: Does Cn1cc(C2=C(c3cn(CCCSC(=N)N)c4ccccc34)C(=O)NC2=O)c2ccccc21 [Ro-31-8220 mesylate] have a reported THP-1 cell loss of at least 30%?
Reply: 1

Ask: Please tell me: is the compound O=[N+]([O-])c1ccc(-c2nc(-c3ccc(F)cc3)c(-c3ccncc3)[nH]2)cc1 at or over 30% in terms of THP-1 cell loss?
Reply: -1

Ask: Textbook exercise: given the entry C=CC(=O)Nc1cc2c(Nc3ccc(F)c(Cl)c3)ncnc2cc1C#CC(C)(C)N1CCN(C)CC1 , state whether its THP-1 cell loss is greater than or equal to 30%.
Reply: 1

Ask: Is it the case that O=C(O)c1ccc2c(c1)nc(Nc1cccc(Cl)c1)c1ccncc12 has THP-1 cell loss reaching or exceeding 30%?
Reply: 1

Ask: hey, is THP-1 cell loss for this one >= 30%? Clc1ccc(Nc2nnc(Cc3ccncc3)c3ccccc23)cc1 [Vatalanib dihydrochloride]
Reply: 1

Ask: Reported THP-1 cell loss reaches at least 30% for COc1cc2ncc(-c3ccccc3)nc2cc1OC ?
Reply: -1

Ask: Answer whether THP-1 cell loss of CCN(CC)CCNC(=O)c1c(C)[nH]c(/C=C2\C(=O)Nc3ccc(F)cc32)c1C [Sunitinib Malate] is greater than or equal to 30%.
Reply: 1

Ask: Is the recorded value of THP-1 cell loss equal to or greater than 30% for this compound? Cn1cc(/C=C2\C(=O)Nc3cccnc32)c2ccccc21
Reply: 1

Ask: Given COc1cc2ncnc(Nc3cccc(Br)c3)c2cc1OC , state whether its THP-1 cell loss is at least 30%.
Reply: 1

Ask: Is the recorded value of THP-1 cell loss equal to or greater than 30% for this compound? Cc1cc2c(F)c(Oc3ncnn4cc(OC[C@@H](C)O)c(C)c34)ccc2[nH]1
Reply: -1

Ask: Does the reported THP-1 cell loss for COc1cc2c(Oc3ccc4[nH]c(C)cc4c3F)ncnc2cc1OCCCN1CCCC1 fall at or above the 30% mark?
Reply: 1

Ask: Hi team, for CNC(=O)c1ccccc1Sc1ccc2c(/C=C/c3ccccn3)n[nH]c2c1 , is the recorded THP-1 cell loss at or above 30%?
Reply: -1

Ask: Check if THP-1 cell loss >= 30% (inclusive). Item: OCCn1cc(-c2ccc3c(c2)CC/C3=N\O)c(-c2ccncc2)n1
Reply: -1

Ask: Tell me whether THP-1 cell loss is at least 30% here: Cc1ccc(C(=O)Nc2cccc(C(F)(F)F)c2)cc1-c1ccc2nc(NCCN3CCOCC3)ncc2c1
Reply: 1

Ask: API: above_or_equal(metric=THP-1 cell loss, cutoff=30%) for item CCCS(=O)(=O)Nc1ccc(F)c(C(=O)c2c[nH]c3ncc(Cl)cc23)c1F
Reply: -1

Ask: Decide: THP-1 cell loss of CCN(CCO)CCCOc1ccc2c(Nc3cc(CC(=O)Nc4cccc(F)c4)[nH]n3)ncnc2c1 >= 30%?
Reply: -1
